- System: MRAB (A. baumannii) ATCC BAA 1605
- Format: cell-based, Acinetobacter baumannii
- CONDITIONS_USED: ATCC BAA 1605, 18 h
Square brackets hold non-standard residues; d marks the D form. Peptide text beside a SMILES is read from it. * marks the point of attachment. Decanoyl = CCCCCCCCCC(=O)*
VALUE_TYPE: MIC MRAB (A. baumannii) ATCC BAA 1605

MIC MRAB (A. baumannii) ATCC BAA 1605 reported for this compound CCCCCCCCCC(=O)NCCCC[C@@H](NC(=O)[C@@H](CCCCN)NC(=O)[C@@H](CCCNC(=N)N)NC(=O)[C@@H](CC(C)C)NC(=O)[C@@H](C)NC(=O)[C@H](NC(=O)[C@@H](Cc1c[nH]c2ccccc12)NC(=O)[C@@H](CC(C)C)NC(=O)[C@@H](CC(C)C)NC(=O)[C@H](N)Cc1c[nH]c2ccccc12)[C@H](C)CC)C(=O)N[C@H](CCCNC(=N)N)C(N)=O [KSH4, wllwialrkkr] (H-[dW][dL][dL][dW][dI][dA][dL][dR][dK][dK](Decanoyl)[dR]-NH2; N-terminus assumed) : >40 µM

###

Would you mind telling me the reported MIC MRAB (A. baumannii) ATCC BAA 1605 of each entry?
- System: MRAB (A. baumannii) ATCC BAA 1605
- Type: cell-based, Acinetobacter baumannii
- CONDITIONS_USED: ATCC BAA 1605, 18 h
Square brackets hold non-standard residues; d marks the D form. Peptide text beside a SMILES is read from it.
Numeric only. Scale: µM

// compound CC[C@@H](C)[C@@H](NC(=O)[C@@H](Cc1c[nH]c2ccccc12)NC(=O)[C@@H](C)NC(=O)[C@@H](C)NC(=O)[C@H](N)Cc1c[nH]c2ccccc12)C(=O)NCC(=O)N[C@H](CC(C)C)C(=O)N[C@H](CCCNC(=N)N)C(=O)N[C@H](CCCNC(=N)N)C(N)=O [KSH78, waawiglrr] (H-[dW][dA][dA][dW][dI]G[dL][dR][dR]-NH2; N-terminus assumed) , assay MRAB (A. baumannii) ATCC BAA 1605, MIC MRAB (A. baumannii) ATCC BAA 1605 value: 5

// compound CC(C)[C@@H](NC(=O)[C@@H](Cc1c[nH]c2ccccc12)NC(=O)[C@@H](CCCNC(=N)N)NC(=O)[C@@H](CCCNC(=N)N)NC(=O)[C@H](N)CCCNC(=N)N)C(=O)N[C@@H](C(=O)N[C@@H](C(=O)N[C@@H](C(=O)N[C@H](Cc1c[nH]c2ccccc12)C(=O)N[C@H](Cc1c[nH]c2ccccc12)C(N)=O)C(C)C)C(C)C)C(C)C [KSH85, rrrwvvvvww] (H-[dR][dR][dR][dW][dV][dV][dV][dV][dW][dW]-NH2; N-terminus assumed) , assay MRAB (A. baumannii) ATCC BAA 1605, MIC MRAB (A. baumannii) ATCC BAA 1605 value: 10

// compound CC[C@@H](C)[C@@H](NC(=O)[C@@H](Cc1c[nH]c2ccccc12)NC(=O)[C@@H](C)NC(=O)[C@@H](C)NC(=O)[C@H](N)Cc1c[nH]c2ccccc12)C(=O)NCC(=O)N[C@H](CC(C)C)C(=O)N[C@H](CCCNC(=N)N)C(=O)N[C@H](CCCNC(=N)N)C(=O)N[C@H](CCCNC(=N)N)C(N)=O [KSH69, waawiglrrr] (H-[dW][dA][dA][dW][dI]G[dL][dR][dR][dR]-NH2; N-terminus assumed) , assay MRAB (A. baumannii) ATCC BAA 1605, MIC MRAB (A. baumannii) ATCC BAA 1605 value: 2.5
